- Test system: HSV-1 strain F or KOS
- assayComment: Inhibition of herpes simplex virus (HSV-1) replication in cell culture (BHK-21 cells, glycoprotein C ELISA)
- Format: cell-based
- recordedConditions: Human alphaherpesvirus 1, BHK-21, Group 1 Table 1 entries
reportedMetric: EC50

Here is how some compounds turned out for EC50.
> print(dat)
                                 chemsmiles          assayedtarget  result
1  CC(C)(C)OC(=O)N1CCC(C(=O)N(CC(=O)Nc2ccc(-c3csc(N)n3)cc2)Cc2ccccc2)CC1  HSV-1 strain F or KOS  700 nM
2  CC(C)(C)OC(=O)N(CC(=O)Nc1ccc(-c2csc(N)n2)cc1)Cc1ccccc1  HSV-1 strain F or KOS   10 nM
3  CC(C)C(=O)N(CC(=O)Nc1ccc(-c2csc(N)n2)cc1)Cc1ccccc1  HSV-1 strain F or KOS  130 nM
4  Nc1nc(-c2ccc(NC(=O)CN(CC3CCCCC3)C(=O)c3ccncc3)cc2)cs1  HSV-1 strain F or KOS  950 nM
5  Nc1nc(-c2ccc(NC(=O)CN(CCc3nccs3)C(=O)c3ccncc3)cc2)cs1  HSV-1 strain F or KOS  680 nM

# next compound below
Retrieve EC50 measured for Nc1nc(-c2ccc(NC(=O)CN(Cc3ccccc3)C(=O)C3CCCCCC3)cc2)cs1 and print it.
2 nM
